// reported growth per item
Tested on: A498 renal
ASSAY INFO: NCI-60 one-dose screen, 48 h (100 = growth as untreated, 0 = no growth, -100 = all killed)
CONDITIONS USED: 10 µM unless noted
This is part of a sample that, as a whole, favours compounds with a hit. Of some 83,000 tested, about 20% had one in any assay. Active and inactive are the calls of the source. Rule for the calls: active = growth percent below 10; inactive = the rest.

[
  {
    "COMPOUND": "COc1cc2nc(Nc3cccc(F)c3)nc(Nc3cc(C)[nH]n3)c2cc1OC",
    "growth": "-83% [20 µM] (active)"
  },
  {
    "COMPOUND": "CCOC(=O)C1=C(c2ccccc2)N=c2s/c(=C/c3ccc(Br)cc3)c(=O)n2C1c1ccc(O)cc1 (configuration not stated)",
    "growth": "73.2% (inactive)"
  },
  {
    "COMPOUND": "O=C(NCc1ccc2c(c1)OCO2)NCC1CCCC(CNC(=O)NCc2ccc3c(c2)OCO3)C1 (configuration not stated)",
    "growth": "95.3% (inactive)"
  },
  {
    "COMPOUND": "CCCCCCCCn1ccc2cc(NC(=O)Cn3cc(CN4CCN(CC)CC4)nn3)ccc21",
    "growth": "90.5% (inactive)"
  },
  {
    "COMPOUND": "COc1ccc2cc(Cn3cc[n+](Cc4ccc5ccccc5c4)c3)ccc2c1",
    "growth": "74.7% (inactive)"
  },
  {
    "COMPOUND": "Clc1ccc(-c2cn3ccsc3n2)c(Cl)c1Cl",
    "growth": "76.7% (inactive)"
  },
  {
    "COMPOUND": "O=C(CBr)CN1C(=O)c2ccccc2C1=O",
    "growth": "88.2% (inactive)"
  },
  {
    "COMPOUND": "CC(C)CN1CC(C(=O)Nc2ccc3c(c2)-c2ccccc2C3)CC1=O (configuration not stated)",
    "growth": "85.8% [50 µM] (inactive)"
  },
  {
    "COMPOUND": "O=C(CCCCCCCCC(=O)N/N=C\\c1cc(Cl)ccc1O)N/N=C\\c1cc(Cl)ccc1O",
    "growth": "73.4% (inactive)"
  },
  {
    "COMPOUND": "Cc1[nH]c(C(=O)Nc2ccc(C(N)=O)cc2NC(C)C)c(Cl)c1Cl",
    "growth": "69.7% (inactive)"
  },
  {
    "COMPOUND": "N#CC(C#N)N=Nc1ccc(Cl)cc1Cl",
    "growth": "84.7% (inactive)"
  },
  {
    "COMPOUND": "CCn1c2ccc(O)cc2c2c(C)c3c[n+](C(C)C)ccc3c(C)c21",
    "growth": "68% (inactive)"
  },
  {
    "COMPOUND": "COC(c1ccc2ccccc2c1)C(C)C(F)F (configuration not stated)",
    "growth": "99.7% (inactive)"
  },
  {
    "COMPOUND": "COc1ccccc1-n1c(-c2cc(O)ccc2C)cn2c3c(=O)[nH]c(=O)n(C)c3nc12",
    "growth": "106% (inactive)"
  },
  {
    "COMPOUND": "COc1ccc(C(C)=O)cc1S(N)(=O)=O",
    "growth": "101% (inactive)"
  },
  {
    "COMPOUND": "O=C(N=Nc1c(O)[nH]c2ccccc12)Nc1ccc(Cl)cc1",
    "growth": "77.6% (inactive)"
  },
  {
    "COMPOUND": "O=C1/C(=C/c2ccc(C(F)(F)F)cc2)COc2ccc(O)c(O)c21",
    "growth": "116% (inactive)"
  },
  {
    "COMPOUND": "COc1cc2ncnc(Nc3ccc(F)c(Cl)c3)c2cc1OCC(=O)N1CCN(c2ccc(F)cc2)CC1",
    "growth": "72.5% (inactive)"
  },
  {
    "COMPOUND": "COc1ccc(-c2oc(=O)ccc2-c2cc(OC)c(OC)c(OC)c2)cc1O",
    "growth": "-1.78% (active)"
  },
  {
    "COMPOUND": "COc1ccc(-c2cc(-c3ccc(OC)cc3)nc(NCCCNc3ccnc4cc(Cl)ccc34)n2)cc1",
    "growth": "23.2% (inactive)"
  },
  {
    "COMPOUND": "COP(=O)(OC)c1nnn(-c2cccc([N+](=O)[O-])c2)c1C",
    "growth": "101% (inactive)"
  },
  {
    "COMPOUND": "CCc1ccc(CCC(=O)Nc2ncc(Cc3ccc(Cl)cc3)s2)o1",
    "growth": "0.963% (active)"
  },
  {
    "COMPOUND": "CCOC(=O)C1CCN(c2ccc(N3C[C@@H](CNCc4ccc(C(=N)N)cc4)OC3=O)cc2)CC1",
    "growth": "108% (inactive)"
  },
  {
    "COMPOUND": "CC1(C)C2CC=C(/C=N/NC(=O)C3CCC(=O)N3)C1C2 (configuration not stated)",
    "growth": "102% (inactive)"
  },
  {
    "COMPOUND": "CC[C@@H](c1ccc2cc(OC)ccc2c1)C(C)(C)C(=O)F",
    "growth": "98.4% (inactive)"
  },
  {
    "COMPOUND": "Oc1c(I)cc(-c2nc3ccccc3s2)cc1CN(Cc1ccccn1)Cc1ccccn1",
    "growth": "18.1% (inactive)"
  },
  {
    "COMPOUND": "CN1CCN(Cc2ccc(NC(=O)c3cncc(C#Cc4cncc5ncccc45)c3)cc2C(F)(F)F)CC1",
    "growth": "-25.5% (active)"
  },
  {
    "COMPOUND": "NC(CSC(c1ccccc1)(c1ccccc1)c1ccc2c(c1)OCO2)C(=O)O (configuration not stated)",
    "growth": "34.3% (inactive)"
  },
  {
    "COMPOUND": "CCSC1=CC(=O)c2ccccc2C1=O",
    "growth": "97.8% (inactive)"
  },
  {
    "COMPOUND": "Clc1ccc(-c2nc(-c3c[nH]c4ncccc34)cs2)cc1",
    "growth": "47.2% [100 µM] (inactive)"
  },
  {
    "COMPOUND": "O=c1nc(Nc2nc3ccccc3s2)[nH]c(=O)c2ccccc12",
    "growth": "77.4% (inactive)"
  },
  {
    "COMPOUND": "NC(=S)N/N=C/c1cn(-c2ccccc2)nc1-c1cc2ccccc2oc1=O",
    "growth": "-6.2% (active)"
  },
  {
    "COMPOUND": "Cc1c2ccccc2nc2c1ccc1cccnc12",
    "growth": "80.2% (inactive)"
  },
  {
    "COMPOUND": "COc1ccc(Cc2cnc(NC(=O)c3sc4ccccc4c3Cl)s2)cc1",
    "growth": "21.3% (inactive)"
  },
  {
    "COMPOUND": "O=C(/C=C/C12c3ccccc3C(c3ccccc31)C1C(=O)NC(=O)C12)c1ccc(F)cc1 (configuration not stated)",
    "growth": "-6.86% (active)"
  },
  {
    "COMPOUND": "Nc1c(C(=O)Nc2cccc3ncccc23)sc2nc3c(cc12)C(=O)CCC3",
    "growth": "4.53% (active)"
  },
  {
    "COMPOUND": "O=C1NC(=C(Cl)Cl)/C(=N/S(=O)(=O)N2CCCCC2)N1",
    "growth": "132% (inactive)"
  },
  {
    "COMPOUND": "CC1(C)CC[C@]2(C(=O)N3CCOCC3)CC[C@]3(C)C(=CC[C@@H]4[C@@]5(C)C/C(=C/c6ccncc6)C(=O)C(C)(C)[C@@H]5CC[C@]43C)[C@@H]2C1",
    "growth": "-20.3% (active)"
  },
  {
    "COMPOUND": "CCNC(=O)Oc1ccc(/C(=C(/C)Cc2ccc(OC)cc2)c2ccc(OCCN3CCCCCC3)cc2)cc1",
    "growth": "70.5% (inactive)"
  },
  {
    "COMPOUND": "CCN(CC)CCCC(C)Nc1ccc2cc(OC)ccc2n1 (configuration not stated)",
    "growth": "84.5% (inactive)"
  },
  {
    "COMPOUND": "CCN(CC)CCCNCc1cc(-c2ccccc2)nc2cc(Cl)ccc12",
    "growth": "22.3% (inactive)"
  },
  {
    "COMPOUND": "COc1cc(C(=O)/C=C/c2c(-c3cccs3)nc3ccccn23)cc(OC)c1OC",
    "growth": "-21.8% (active)"
  }
]

From: PubChem BioAssay (NCI)
